target: UniProt:P19327
Sequence (P19327 whole entry): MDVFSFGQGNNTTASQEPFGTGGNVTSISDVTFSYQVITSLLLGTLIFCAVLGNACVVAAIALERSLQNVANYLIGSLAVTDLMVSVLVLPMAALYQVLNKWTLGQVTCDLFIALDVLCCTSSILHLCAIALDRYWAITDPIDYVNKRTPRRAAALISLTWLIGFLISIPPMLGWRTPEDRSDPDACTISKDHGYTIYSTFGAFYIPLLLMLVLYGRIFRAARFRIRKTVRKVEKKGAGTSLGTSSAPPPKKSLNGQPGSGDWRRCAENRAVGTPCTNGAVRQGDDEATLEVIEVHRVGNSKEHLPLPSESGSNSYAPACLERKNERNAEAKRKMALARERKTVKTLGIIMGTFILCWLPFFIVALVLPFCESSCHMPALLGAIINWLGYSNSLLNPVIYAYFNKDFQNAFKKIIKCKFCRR
Literature survey of Ki (system: UniProt:P19327).
Number only, in nM; omit the unit.

Check out these entries, answers already filled in.
>>> print(df.to_string())
                                   molecule          target  assay_value
0  O=C1CCc2cc(CCCCN3CCN(c4nsc5ccccc45)CC3)cc3c2N1CCC3  UniProt:P19327           98
1  CCOc1ccc(CCCCNCCOc2cc(F)cc3c2OCCC3=O)cc1  UniProt:P19327           18
2  COc1cccc(OC)c1OCCNC[C@H]1COc2c(OC)cccc2O1.Cl  UniProt:P19327         28.8
3       CC(C)(C)NC[C@H](O)COc1ccccc1C1CCCC1  UniProt:P19327          2.4

Now take the following molecule into account.
Measured Ki of O=C1NC2(CCC(c3ccccc3)CC2)C(=O)N1CCCCN1CCN(c2ccccc2)CC1 (stereo not given) : 35
